// data source = patent US9790169B2

# test_target: human IDO1 (Homo sapiens, UniProt P14902)
# Sequence (P14902 whole entry): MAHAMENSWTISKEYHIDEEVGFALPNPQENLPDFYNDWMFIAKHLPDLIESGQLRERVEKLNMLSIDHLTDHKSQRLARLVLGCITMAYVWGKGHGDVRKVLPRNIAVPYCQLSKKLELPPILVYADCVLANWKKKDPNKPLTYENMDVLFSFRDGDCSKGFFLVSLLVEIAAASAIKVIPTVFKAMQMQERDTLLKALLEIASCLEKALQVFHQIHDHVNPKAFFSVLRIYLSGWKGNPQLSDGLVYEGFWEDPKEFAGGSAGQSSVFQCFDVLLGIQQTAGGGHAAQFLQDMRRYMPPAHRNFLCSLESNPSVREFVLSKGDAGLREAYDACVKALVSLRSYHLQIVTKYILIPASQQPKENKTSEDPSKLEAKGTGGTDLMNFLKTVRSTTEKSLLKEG
# test_summary: Assessment of human IDO-1 inhibitory activity in HEK cells (human IDO1/HEK293 cells, kynurenine read-out with Ehrlich reagent, absorbance 490 nm)
# Format: cell-based
# Set-up: expressed in transfected cells
# measurement_parameters: HEK Human IDO-1 cellular assay
pIC50: −log10 of the molar value.
Hi there, I'd appreciate the recorded pIC50 for every entry that follows.

Worked examples, 4 molecules total:
molecule: CCC(CC(=O)O)c1cc(NC(=O)Nc2ccc3c(c2)OCO3)c(N(CC(C)C)CC(C)C)cc1F (single isomer, unassigned) [Example 1135]
property: pIC50
measured: > 8.30
//
molecule: COCC(CC(=O)O)c1ccc(N(CC(C)C)C2CCOCC2)c(NC(=O)Nc2cc(C)on2)c1 (single isomer, unassigned) [Example 1213]
property: pIC50
measured: < 7.30
//
molecule: COCC(CC(=O)O)c1ccc(N(CC(C)C)C2CCCCC2)c(NC(=O)Nc2ccc(OC(F)(F)F)cc2)c1 (single isomer, unassigned) [Example 1244]
property: pIC50
measured: > 8.30
//
molecule: COCC(CC(=O)O)c1cc(F)c(N(CC(C)C)CC(C)C)c(NC(=O)Nc2ccc(OC)cc2F)c1 (single isomer, unassigned) [Example 1176]
property: pIC50
measured: > 8.30

Respectfully, I request pIC50 for each entry included below.
1. CC[C@@H](CC(=O)O)c1ccc(N(CC)C2CCOCC2)c(Nc2ccn3nccc3n2)c1 (single isomer, unassigned) [Example 468]
2. CCN(c1ccc(C(C)(C)CC(=O)O)cc1NC(=O)Nc1ccc(C)cc1)C1CCOCC1 [Example 167]

Outgoing:
1: < 7.30; 2: > 7.30
